Assay Comment: Cytotoxicity Determination (CCK-8, without addition of virus)
Type: cell-based
Condition Label: human, 50% cytotoxicity concentration (CC50)
Procedure: CPE reduction assays are performed as described by Sidwell and Huffman et al., Appl. Microbiol. (1971) 22(5):797-801 with slight modifications. HEp-2 cells (ATCC #, CCL-23) are seeded at a density of 1,500 cells/30 μl/well into the 384-well cell plate(s) (Corning #3701) one day prior to the assay. Compounds are added into 384-well cell plates by Labcyte POD 810 Plate Assembler system. […] Place on ice until ready to use. […]
Reported CC50 at 5 days is given for each of the following compounds.

Solved entries:
>>> assay_result("COc1ccc(C(=O)NCC(O)c2nc(-c3csc4c(F)cccc34)cn2C)cc1OC (centres unmarked)")
"10 to 100 µM"
>>> assay_result("COc1ccc(C(=O)NCC(=O)c2nc(-c3csc4c(F)cccc34)c3ccccn23)cc1OC")
"10 to 100 µM"
>>> assay_result("COc1cc(C(=O)NCC(O)(c2ccc(OC)c(-c3ccc(F)c(Cl)c3)n2)C2CC2)ccc1OCc1ncn[nH]1 (centres unmarked)")
"10 to 100 µM"

query: Report CC50 at 5 days for COc1ccc(C(O)(CNC(=O)c2ccc3ncsc3c2)C(F)(F)F)nc1-c1ccc(F)c(Cl)c1 (centres unmarked) please.
result: 10 to 100 µM

query: Endpoint output: CC50 at 5 days of COc1cc(C(=O)NCC(O)(c2cc3c(c(-c4ccc(F)c(C(C)F)c4)n2)OCCC3(C)C)C2CC2)ccc1OCCO (centres unmarked) . Value?
result: 10 to 100 µM

query: Requested field: CC50 at 5 days. Item: COc1cc(C(=O)NCC(C)(O)c2cc(C(C)(C)C)cc(-c3ccc(F)c(Cl)c3)n2)ccc1OCCO (centres unmarked)
result: 10 to 100 µM

query: What value of measured CC50 at 5 days is listed for COc1cc(C(=O)NCC(O)(c2cc(C(C)(C)NC(C)=O)cc(-c3ccc(F)cc3)n2)C(F)(F)F)ccc1OCC(N)=O (centres unmarked) ?
result: > 100 µM

query: I would be grateful if you could share the reported CC50 at 5 days for COc1cc(C(=O)NCC(O)(c2cc(C(C)(C)N)cc(-c3ccc(F)cc3)n2)C(F)(F)F)ccc1OC[C@@H](C)O (some centres unmarked) .
result: 10 to 100 µM

query: So what does the record say about CC50 at 5 days for COc1cc(C(=O)NCC(O)(c2cc(CN)cc(-c3ccc(F)c(Cl)c3)n2)C(F)(F)F)ccc1OC1CC1 (centres unmarked) ?
result: 10 to 100 µM

query: Query: CC50 at 5 days; subject: COc1cc(C(=O)NCC(O)(c2cc(C(C)(N)CF)cc(-c3ccc(F)cc3)n2)C(F)(F)F)ccc1OCC(N)=O (centres unmarked)
result: > 100 µM

====

Test system: RSV replicon
Assay Comment: microbe, parasite or virus in culture
Type: cell-based
Condition Label: human respiratory syncytial virus, read-out: EC50, the concentration of the drug required for reducing RSV replicon RNA by 50%
Result Type: EC50

The cases that follow already have their EC50 on record.
>>> assay_result("COc1cc(C(=O)NCC(O)(c2cc(C(C)(C)NCCN)cc(-c3ccc(F)c(Cl)c3)n2)C(F)(F)F)ccc1OC1CC1 (centres unmarked)")
"< 1000 nM"
>>> assay_result("COc1cc(C(=O)NCC(O)(c2cc(C(C)(C)NS(C)(=O)=O)cc(-c3ccc(F)c(Cl)c3)n2)C(F)(F)F)ccc1OC1CC1 (centres unmarked)")
"< 1000 nM"
>>> assay_result("COc1cc(C(=O)NCC(C)(OC)c2ccc(OC)c(-c3ccc(F)c(Cl)c3)n2)ccc1OC1CC1 (centres unmarked)")
"< 1000 nM"

query: If you can, please state the reported EC50 value of COc1cc(C(=O)NCC(O)(c2cc3c(c(-c4ccc(F)cc4)n2)OCC3(C)N)C(F)(F)F)ccc1OCCO (centres unmarked) .
result: < 1000 nM

query: Which EC50 value is on record for COc1cc(C(=O)NCC(C)(O)c2cc(C(C)(C)N)cc(-c3ccc(F)cc3)n2)ccc1OCC(N)=O (centres unmarked) ?
result: < 1000 nM

query: GET /values?readout=EC50&item= COc1cc(C(=O)NCC(O)(c2cc3c(c(-c4ccc(F)c(Cl)c4)n2)OCC3(C)N)C(F)(F)F)ccc1OCCO (centres unmarked)
result: < 1000 nM

query: Look up EC50 for this compound: COc1cc(C(=O)NCC(O)(c2cc3c(c(-c4ccc(C(=O)O)cc4)n2)OCC3(C)N)C(F)(F)F)ccc1OCCO (centres unmarked)
result: < 1000 nM

query: Look up EC50 for this compound: COc1cc(C(=O)NCC(O)(c2ccc(OC)c(-c3ccc(F)c(Cl)c3)n2)c2cnn(C)n2)ccc1OCCO (centres unmarked)
result: < 1000 nM

query: // EC50 lookup, key: COc1cc(C(=O)NCC(O)(c2cc(C(C)(C)N)cc(-c3ccc(F)c(C(F)(F)F)c3)n2)C(F)(F)F)ccc1OC1CC1 (centres unmarked)
result: < 1000 nM

query: Quick check: EC50 of COc1cc(C(=O)NCC(O)(Cn2ccnc2)c2cc3c(c(-c4ccc(F)c(Cl)c4)n2)OCC3(C)C)cc2cccnc12 (centres unmarked) ?
result: < 1000 nM

query: Sample COc1cc(C(=O)NCC(O)(c2ccc(OC)c(-c3ccc(F)c(Cl)c3)n2)C(C)O)ccc1OC1CC1 (centres unmarked) — what was its EC50?
result: < 1000 nM

query: Entry COc1cc(C(=O)NCC(O)(c2cc3c(c(-c4ccc(F)c(Cl)c4)n2)OCC3(C)C)C(F)(F)F)ccc1OC1CCNC1=O (centres unmarked) has what EC50?
result: < 1000 nM

query: If you can, please state the reported EC50 value of COc1cc(C(=O)NCC(O)(c2cc(CN)cc(-c3ccc(F)cc3)n2)C(F)(F)F)ccc1OC1CC1 (centres unmarked) .
result: < 1000 nM

query: For the compound COc1cc(C(=O)NC[C@@](O)(c2cc(C(C)(C)N)cc(-c3ccc(F)cc3)n2)C(F)(F)F)ccc1OC[C@@H](C)O , what EC50 is on record?
result: < 1000 nM
